Source: ChEMBL document CHEMBL2375212

System: MCF7
assayExplanation: Cytotoxicity against human MCF7 cells compound treated for 6 hrs measured 48 hrs post washout by MTT assay
Assay type: functional, cell-based
Form field: pIC50 (one value per entry).
Lab note — pIC50 values are minus log10 of concentrations in M.

{"columns": ["smilesString", "reportedResult"],
 "data": [
  ["Cn1c(/C=C/C(=O)c2ccc(O)cc2O)cc(Br)c1Br", 5.79]
]}

Entry under review: `Cn1c(/C=C/C(=O)c2ccc(O)cc2)cc(Br)c1Br` . Reported pIC50?
5.51

###

targetDesc: Dual specificity mitogen-activated protein kinase kinase 1 (Homo sapiens, UniProt Q02750)
Sequence (Q02750 whole entry): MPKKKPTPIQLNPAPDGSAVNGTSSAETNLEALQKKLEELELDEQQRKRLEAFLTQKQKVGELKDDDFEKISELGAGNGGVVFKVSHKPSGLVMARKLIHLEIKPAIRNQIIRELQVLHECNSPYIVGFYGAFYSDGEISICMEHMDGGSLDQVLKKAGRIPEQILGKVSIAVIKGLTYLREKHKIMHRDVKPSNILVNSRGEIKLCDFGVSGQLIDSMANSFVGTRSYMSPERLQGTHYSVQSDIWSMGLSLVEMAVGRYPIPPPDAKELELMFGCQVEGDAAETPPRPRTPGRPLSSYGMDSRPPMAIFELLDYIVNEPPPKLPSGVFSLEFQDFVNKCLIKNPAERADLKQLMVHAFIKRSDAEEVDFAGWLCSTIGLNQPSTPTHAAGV
assayExplanation: Inhibition of MEK1 (unknown origin)
metric: IC50 (nM)
# output: bare number, implied unit nM

Entry under review: Nc1nc(C2CCNC(=O)c3[nH]c(Br)c(Br)c32)c[nH]1 (stereo unspecified) . Reported IC50?
6
